Origin of values: patent US6737383B1

Test system: blackgrass
Experiment: Test B pre/postemergence blackgrass
Format: in vivo, Alopecurus myosuroides
Details: Preemergence, Rate 500 g/ha; scale 0 (no effect) to 10 (complete control)
Reported Blackgrass plant response rating values for a set of molecules

[
  {
    "Molecule": "CC(C)N(C(=O)n1oc(=O)n(-c2cnn(C)c2Cl)c1=O)c1ccc(F)cc1 [Compound 97]",
    "Blackgrass plant response rating": 3
  },
  {
    "Molecule": "Cc1cccc(C(C)C)c1-n1c(=O)on(C(=O)N(c2ccc(Cl)cc2)C(C)C)c1=O [Compound 64]",
    "Blackgrass plant response rating": 0
  },
  {
    "Molecule": "Cc1cccc(C(C)C)c1-n1c(=O)on(C(=O)N(c2ccc(F)cc2)C(C)C)c1=O [Compound 65]",
    "Blackgrass plant response rating": 0
  }
]
